Taken from ChEMBL document CHEMBL1147425.

Provide the reported pKi of each item.
- target desc: Histamine H3 receptor (Homo sapiens, UniProt Q9Y5N1)
- Sequence (Q9Y5N1 whole entry): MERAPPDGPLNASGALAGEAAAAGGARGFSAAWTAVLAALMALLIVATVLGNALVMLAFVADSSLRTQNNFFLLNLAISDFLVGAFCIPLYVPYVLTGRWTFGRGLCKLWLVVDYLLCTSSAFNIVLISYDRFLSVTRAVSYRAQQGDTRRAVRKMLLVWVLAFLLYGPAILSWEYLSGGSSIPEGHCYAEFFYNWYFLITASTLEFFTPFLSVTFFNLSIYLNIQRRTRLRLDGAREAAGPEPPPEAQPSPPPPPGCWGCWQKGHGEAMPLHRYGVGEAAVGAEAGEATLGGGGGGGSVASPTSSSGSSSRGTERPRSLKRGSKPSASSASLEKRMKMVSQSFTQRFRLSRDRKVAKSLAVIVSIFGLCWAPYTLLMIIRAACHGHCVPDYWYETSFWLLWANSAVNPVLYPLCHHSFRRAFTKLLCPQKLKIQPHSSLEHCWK
Just so you know, pKi here is -log10 of the concentration in molar units; reply with that number alone.

Record request: pKi value, item CC(C)c1nc(-c2ccc(OCCCN3CCCN(C(=O)[C@@H](C)NC(=O)c4ccco4)CC3)cc2F)no1 7.34

Record request: pKi value, item C[C@@H](NC(=O)c1ccc(F)cc1)C(=O)N1CCCN(CCCOc2ccc(-c3noc(CC4CCCC4)n3)c(F)c2)CC1 7.85

Record request: pKi value, item C[C@@H](NC(=O)c1cccc(F)c1)C(=O)N1CCN(CCCOc2ccc(-c3noc(CC4CCCC4)n3)c(F)c2)CC1 7.74

Record request: pKi value, item CC(C)CCC(=O)N[C@H](C)C(=O)N1CCN(CCCOc2ccc(-c3noc(-c4ccccc4)n3)c(F)c2)CC1 7.17

Record request: pKi value, item CCCCC(=O)N[C@H](C)C(=O)N1CCCN(CCCOc2ccc(-c3noc(CC4CCCC4)n3)c(F)c2)CC1 7.74

Record request: pKi value, item CC(C)OCc1nc(-c2ccc(OCCCN3CCCN(C(=O)[C@@H](C)NC(=O)c4ccco4)CC3)cc2F)no1 6.96

Record request: pKi value, item C[C@@H](NC(=O)c1cccnc1)C(=O)N1CCN(CCCOc2ccc(-c3noc(CC4CCCC4)n3)c(F)c2)CC1 7.70
